What IC50 was measured for each of the following?
Protein target, amino acids: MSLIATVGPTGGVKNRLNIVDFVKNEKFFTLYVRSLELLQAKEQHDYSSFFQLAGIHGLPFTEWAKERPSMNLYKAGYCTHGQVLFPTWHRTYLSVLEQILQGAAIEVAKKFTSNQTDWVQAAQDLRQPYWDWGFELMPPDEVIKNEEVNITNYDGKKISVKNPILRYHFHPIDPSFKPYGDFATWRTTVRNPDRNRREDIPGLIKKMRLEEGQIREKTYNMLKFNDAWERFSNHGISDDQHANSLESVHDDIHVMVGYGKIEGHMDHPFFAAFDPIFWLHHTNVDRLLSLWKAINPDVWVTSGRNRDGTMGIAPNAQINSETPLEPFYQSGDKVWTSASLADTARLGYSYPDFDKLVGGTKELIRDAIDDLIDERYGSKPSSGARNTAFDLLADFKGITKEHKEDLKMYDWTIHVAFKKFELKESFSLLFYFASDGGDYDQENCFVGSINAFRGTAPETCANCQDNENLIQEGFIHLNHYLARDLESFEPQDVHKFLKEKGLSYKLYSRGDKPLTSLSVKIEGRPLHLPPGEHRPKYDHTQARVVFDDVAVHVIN
Numbers only, in µM.

Batch lookup, IC50 per entry.
1. O=C(OCc1ccc(O)cc1)c1cc(O)c(O)c(O)c1 [4-HYDROXYBENZYL GALLATE]
2. O=C(OCc1ccccc1O)c1cc(O)cc(O)c1
3. O=C(OCc1cccc(O)c1)c1cc(O)c(O)c(O)c1

1. 25.7
2. 19.9
3. 11.5

Hi there! I need IC50 for each item below, if you can.
1. O=C(OCc1ccccc1O)c1c(O)cc(O)cc1O
2. O=C(OCc1ccc(O)cc1)c1c(O)cc(O)cc1O [4-HYDROXYBENZYL 2,4,6-DIHYDROXYBENZOATE]
3. O=C(OCc1ccc(O)cc1)c1cc(O)ccc1O [4-HYDROXYBENZYL 2,5-DIHYDROXYBENZOATE]
4. O=C(OCc1cccc(O)c1)c1cc(O)ccc1O [3-HYDROXYBENZYL 2,5-DIHYDROXYBENZOATE]

19.9
8
12.3
24.4

Give the measured IC50 of O=C(OCc1ccc(O)cc1)c1cc(O)cc(O)c1 [4-HYDROXYBENZYL 3,5-DIHYDROXYBENZOATE] .
5.84

====

# study.system: Tyrosinase (Agaricus bisporus)
readout.kind: pKi
Numbers only, as −log10 of the molar value.

# query: pKi of entry O=C(OCc1ccc(O)cc1)c1ccc(O)cc1O
5.95
